I'd appreciate it if you could supply pIC50 values for the items below.
Tested on: NCI-H748;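 further: growth inhibition of NCI-H748 cells, measured by a cell viability assay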
Test: cells
Format: functional, cell-based
Details: Homo sapiens
Description: SANGER: Inhibition of human NCI-H748 cell growth in a cell viability assay.
pIC50: −log10 of the molar value.

Here's what some known entries look like.
compound=CC1=C2C[C@H]3[C@@H](CC=C4C[C@@H](O)CC[C@@]43C)[C@@H]2CC[C@]12O[C@@H]1C[C@H](C)CN[C@H]1[C@H]2C target_or_system=NCI-H748 result="< 4.80"
compound="C=C1C(=O)O[C@@H]2C3O[C@]3(C)CC/C=C(\\C)CC[C@@H]12 (stereo partly specified)" target_or_system=NCI-H748 result="< 5.30"
compound=Cc1ccc(Nc2nccc(N(C)c3ccc4c(C)n(C)nc4c3)n2)cc1S(N)(=O)=O target_or_system=NCI-H748 result="< 5.10"
compound=COC(=O)CNC(=O)C(=O)OC target_or_system=NCI-H748 result=3.60
compound=CCC1=C[C@@H]2CN(C1)Cc1c([nH]c3ccccc13)[C@@](C(=O)OC)(c1cc3c(cc1OC)N(C)[C@H]1[C@@](O)(C(=O)OC)[C@H](OC(C)=O)[C@]4(CC)C=CCN5CC[C@]31[C@@H]54)C2 target_or_system=NCI-H748 result=7.24

[in] Requested read-out: pIC50. Entry: `CCc1nc(N)nc(N)c1-c1ccc(Cl)cc1`
[out] < 4.70

----------
Please provide measured pIC50 for the entries that follow.
Test system: AGS;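 further: growth inhibition of AGS cells, determined with a cell viability assay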
Test: cells
Format: functional, cell-based, Homo sapiens
Conditions: Homo sapiens, AGS
Description: SANGER: Inhibition of human AGS cell growth in a cell viability assay.
pIC50: −log10 of the molar value.

compound=CC(=O)O[C@@H]1[C@@H](OC(C)=O)[C@@H](O)[C@H](Oc2c(-c3ccc(O)cc3)oc3cc(O)cc(O)c3c2=O)O[C@H]1C target_or_system=AGS observation_type=pIC50 result="< 5.00"

For every listed record, write down its pIC50.
1. Cc1cnc(-c2cnc(NCCNc3ccc(C#N)cn3)nc2-c2ccc(Cl)cc2Cl)[nH]1 [LADUVIGLUSIB]
2. O=c1cc(-c2cccc3c2Sc2ccccc2S3)oc(N2CCOCC2)c1 [KU-55933]

[out]
1. < 5.59
2. < 5.00

----------
Test system: GOTO;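 further: growth inhibition of GOTO cells, read out by a cell viability assay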
Assay: cells
Type: functional, cell-based, Homo sapiens
Conditions: Homo sapiens, GOTO
Description: SANGER: Inhibition of human GOTO cell growth in a cell viability assay.
pIC50: −log10 of the molar value.
Observation Type: pIC50

molecule="O=C(/C=C/c1ccccc1)NC(NC(=S)Nc1cccc2cccnc12)C(Cl)(Cl)Cl (stereo not drawn)" target_or_system=GOTO result="< 4.80"
molecule="C=C1C(=O)O[C@@H]2C3O[C@]3(C)CC/C=C(\\C)CC[C@@H]12 (stereo partly drawn)" target_or_system=GOTO result="< 5.30"

We now examine a further molecule.
[in] Short answer please: pIC50, GOTO, entry `CN(c1ncccc1CNc1nc(Nc2ccc3c(c2)CC(=O)N3)ncc1C(F)(F)F)S(C)(=O)=O`
[out] < 5.59

----------
System: RXF 393;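 further: growth inhibition of human RXF 393 cells, read out with a cell viability assay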
Test: cells
Format: functional, cell-based
Details: Homo sapiens
Description: SANGER: Inhibition of human RXF393 cell growth in a cell viability assay.
Observation Type: IC50

Here is how some molecules turned out for IC50.
molecule="Cn1cncc1[C@@](N)(c1ccc(Cl)cc1)c1ccc2c(c1)c(-c1cccc(Cl)c1)cc(=O)n2C [TIPIFARNIB]" observation_type=IC50 result="> 16 µM"
molecule="Cc1cnc(-c2cnc(NCCNc3ccc(C#N)cn3)nc2-c2ccc(Cl)cc2Cl)[nH]1 [LADUVIGLUSIB]" observation_type=IC50 result="> 2.56 µM"
molecule="CO[C@H]1C[C@@H]2CC[C@@H](C)[C@@](O)(O2)C(=O)C(=O)N2CCCC[C@H]2C(=O)O[C@H]([C@H](C)C[C@@H]2CC[C@@H](O)[C@H](OC)C2)CC(=O)[C@H](C)/C=C(\\C)[C@@H](O)[C@@H](OC)C(=O)[C@H](C)C[C@H](C)/C=C/C=C/C=C/1C [SIROLIMUS]" observation_type=IC50 result="> 0.1 µM"
molecule="O=c1cc(-c2cccc3c2Sc2ccccc2S3)oc(N2CCOCC2)c1 [KU-55933]" observation_type=IC50 result="> 10 µM"
molecule=CCOc1nc(NC(=O)Cc2cc(OC)ccc2OC)cc(N)c1C#N observation_type=IC50 result="> 10 µM"

Next up:
[in] Endpoint output: IC50 of `O=C1N=C(NCc2cccs2)S/C1=C\c1ccc2ncccc2c1` . Value?
[out] > 5 µM
